- System: MIA PaCa-2 cells
- assay_info: Growth inhibition activity on KRAS-G12C mutant cell line (CellTiter-Glo 3D)
- Format: cell-based, human
- measurement_context: Homo sapiens, MIA PaCa-2, 72 h, MIA PaCa-2, 3-day culture with compound; Table 3-1
- Experimental: MIA PaCa-2 cells (given by Sumitomo Dainippon Pharma Co., Ltd.), which are a KRAS-G12C mutant human pancreas cancer cell line, were suspended in a 10% fetal bovine serum-containing RPMI1640 medium (manufactured by Fujifilm Wako Pure Chemical Corporation). […] The cell count after 3-day culture in the presence of the test compound was measured using CellTiter-Glo 3D Reagent (manufactured by Promega Corporation). […] 30 minutes after mixing, luminescence was measured by a plate reader. […]
compounds and their reported log10 IC50
For clarity, the numbers are log10 values of IC50 expressed in µM.

Below, each entry is followed by its recorded log10 IC50 result.
{"compound": "CN1CCc2cc(C(=O)c3cc(F)c(NC(=O)/C=C/CN4CC[C@H]4C(C)(C)O)c(F)c3)n3cccc(c23)-c2c(C(F)(F)F)cc3c(ncn3C)c21 (single isomer, unassigned)", "metric_name": "log10 IC50", "quantitative_readout": -1.90}
{"compound": "CN1CCc2nc(C(=O)c3cc(F)c(NC(=O)C=CCNC4(C)COC4)c(F)c3)n3cccc(c23)-c2c(C(F)(F)F)cc3c(ncn3C)c21", "metric_name": "log10 IC50", "quantitative_readout": -1.21}
{"compound": "Cc1nc2c3c(c(C(F)(F)F)cc2n1C)-c1cccc2c(C(=O)c4cc(F)c(NC(=O)/C=C/CNC5(C)COC5)c(F)c4)cn(c12)CCN3C (single isomer, unassigned)", "metric_name": "log10 IC50", "quantitative_readout": -2.27}

Query: // query log10 IC50 value for entry COCCn1c(C)nc2c3c(c(OC)cc21)-c1cccn2c(C(=O)c4cc(F)c(NC(=O)/C=C/CNC5(C)CCCC5)c(F)c4)cc(c12)CCO3
Reply: -1.76

Query: CN1CCc2cc(C(=O)c3cc(F)c(NC(=O)/C=C/CNC4(C)COC4)c(F)c3)n3cccc(c23)-c2c(C(F)(F)F)cc3c(ncn3C3CC3)c21 (single isomer, unassigned) ?
Reply: -0.93

---

- target_desc: interaction between GMPPNP-bound recombinant K-Ras4B G12C mutant protein and cRAF RAS-binding domain (cRAF-RBD) (Homo sapiens, UniProt P01116, G12C)
- Construct: His-tag (N)
- Sequence (P01116 with tags, fused parts or gaps isoform P01116-2 G12C): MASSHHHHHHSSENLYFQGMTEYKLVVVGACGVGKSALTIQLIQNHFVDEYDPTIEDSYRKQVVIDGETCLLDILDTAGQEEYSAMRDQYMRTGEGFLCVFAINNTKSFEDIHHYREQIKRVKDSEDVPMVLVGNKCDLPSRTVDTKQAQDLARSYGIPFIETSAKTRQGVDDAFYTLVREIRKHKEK
- assay_info: Inhibitory activity on interaction between KRAS G12C and cRAF (Alpha technology)
- measurement_context: IC50, GMPPNP-bound KRAS G12C incubated with compound 25° C. 1 hour; Table 2
metric_name: IC50

Sample records with IC50:
{"compound": "CO[C@H]1CC[C@H](NC/C=C/C(=O)Nc2c(F)cc(C(=O)c3cn4c5c(cccc35)-c3c(Cl)cccc3OCC4)cc2F)CC1 (single isomer, unassigned) [Example 1-2]", "IC50": "180 nM"}
{"compound": "CO[C@H]1CC[C@H](NC/C=C/C(=O)Nc2c(F)cc(C(=O)c3cn4c5c(cccc35)-c3c(C)cc5c(nc(C)n5C)c3OC[C@@H](C)C4)cc2F)CC1", "IC50": "100 nM"}
{"compound": "CO[C@H]1CC[C@H](NC/C=C/C(=O)Nc2c(F)cc(C(=O)c3cn4c5c(cccc35)-c3c(C)cc5c(nc(C)n5C)c3OC4)cc2F)CC1", "IC50": "100 nM"}
{"compound": "CO[C@H]1CC[C@H](NC/C=C/C(=O)Nc2c(F)cc(C(=O)c3cn4c5c(cccc35)-c3c(Cl)cc(N5CCCC5=O)cc3OCC4)cc2F)CC1", "IC50": "150 nM"}
{"compound": "CO[C@H]1CC[C@H](NC/C=C/C(=O)Nc2c(F)cc(C(=O)c3cn4c5c(cccc35)-c3c(C)cc5c(nc(C)n5C)c3OCC(F)(F)C4)cc2F)CC1", "IC50": "100 nM"}
{"compound": "CO[C@H]1CC[C@H](NC/C=C/C(=O)Nc2c(F)cc(C(=O)c3cn4c5c(cccc35)-c3c(C)cc5c(nc(C)n5C)c3OCC4)cc2F)CC1 (single isomer, unassigned) [Example 14-2]", "IC50": "> 6700 nM"}
{"compound": "CC(C)(C)NC/C=C/C(=O)Nc1c(F)cc(C(=O)c2cn3c4c(cccc24)-c2c(Cl)cccc2OCCC3)cc1F (single isomer, unassigned) [Example 2-1]", "IC50": "> 6700 nM"}
{"compound": "CO[C@H]1CC[C@H](NC/C=C/C(=O)Nc2c(F)cc(C(=O)c3cn4c5c(cccc35)-c3c(cccc3C(F)(F)F)OCC4)cc2F)CC1 (single isomer, unassigned) [Example 11-1]", "IC50": "> 6700 nM"}

Query: # lookup: IC50 of CO[C@H]1CC[C@H](NC/C=C/C(=O)Nc2c(F)cc(C(=O)c3cn4c5c(cccc35)-c3c(C(F)(F)F)cc5c(nc(C)n5C)c3CCCC4)cc2F)CC1
Reply: 220 nM

Query: Try CO[C@H]1CC[C@H](NC/C=C/C(=O)Nc2c(F)cc(C(=O)c3cn4c5c(cccc35)-c3c(C)cc5c(nc(C)n5C)c3OC[C@@H]4C)cc2F)CC1 next.
Reply: 19 nM

Query: # iterate: CO[C@H]1CC[C@H](NC/C=C/C(=O)Nc2c(F)cc(C(=O)c3cn4c5c(cccc35)-c3c(Cl)cccc3OCCC4)cc2F)CC1 (single isomer, unassigned) [Example 4-2]
Reply: 290 nM
